tested on: DIO2 (gene 1734); test: CCTE_GLTED_hDIO2: CCTE's human Deiodinase 2 (DIO2) Inhibition Assay, Great Lakes Toxicology and Ecology Division (GLTED) Lab (AID 2284050)
Activity calls are given as the source filed them. How the source made its calls: active means hit-call score of the fitted dose curve at least 0.9, where 1 is the maximum; inconclusive means response in the unintended direction; inactive means score below 0.9.
Outcomes: active, inactive

>>> assigned_label("CC=C1CC2C=CC1C2 (stereo not drawn)")
"active"
>>> assigned_label("O=C(C=Cc1ccccc1)OCc1ccccc1")
"active"
>>> assigned_label("CCCCCCCC[N+](C)(CCCCCCCC)CCCCCCCC")
"active"
>>> assigned_label("CCCCCCCCCCCCCOP(=O)(O)O")
"active"
>>> assigned_label("Oc1ccc(Cl)cc1Cc1cc(Cl)ccc1O")
"active"
>>> assigned_label("CCN(CCC#N)c1ccc(N=Nc2c(Cl)cc([N+](=O)[O-])cc2Cl)cc1")
"inactive"
>>> assigned_label("O=S1(=O)OC(c2ccc(O)cc2)(c2ccc(O)cc2)c2ccccc21")
"active"
>>> assigned_label("CCCCCCCC/C=C\\CCCCCCCC(=O)O")
"active"
